Known melting point of a selection of compounds

{"smiles.record": "COc1cc(-c2nnc(Nc3ccc(C(=O)OCCn4c([N+](=O)[O-])cnc4C)cc3)s2)cc(OC)c1OC", "melting point": "252 °C"}
{"smiles.record": "Cc1ncc([N+](=O)[O-])n1CCOC(=O)c1ccc(Nc2nnc(-c3ccc(-c4ccccc4)cc3)s2)cc1", "melting point": "> 300 °C"}
{"smiles.record": "Cc1ncc([N+](=O)[O-])n1CCOC(=O)c1ccc(Nc2nnc(-c3ccc(Cl)cc3)s2)cc1", "melting point": "242 to 244 °C"}
{"smiles.record": "Cc1ncc([N+](=O)[O-])n1CCOC(=O)c1ccc(Nc2nnc(-c3ccccc3)s2)cc1", "melting point": "240 to 242 °C"}
{"smiles.record": "Cc1ncc([N+](=O)[O-])n1CCOC(=O)c1ccc(Nc2nnc(-c3cccnc3)s2)cc1", "melting point": "232 to 234 °C"}

Here's the next entry for you.
Input Cc1ncc([N+](=O)[O-])n1CCOC(=O)c1ccc(Nc2nnc(-c3cccc(Cl)c3)s2)cc1 , output reported melting point.
202 to 204 °C
